- SUBJECT OF TEST: recombinant PDK-1 (Homo sapiens, UniProt O15530)
- Sequence (O15530 whole entry): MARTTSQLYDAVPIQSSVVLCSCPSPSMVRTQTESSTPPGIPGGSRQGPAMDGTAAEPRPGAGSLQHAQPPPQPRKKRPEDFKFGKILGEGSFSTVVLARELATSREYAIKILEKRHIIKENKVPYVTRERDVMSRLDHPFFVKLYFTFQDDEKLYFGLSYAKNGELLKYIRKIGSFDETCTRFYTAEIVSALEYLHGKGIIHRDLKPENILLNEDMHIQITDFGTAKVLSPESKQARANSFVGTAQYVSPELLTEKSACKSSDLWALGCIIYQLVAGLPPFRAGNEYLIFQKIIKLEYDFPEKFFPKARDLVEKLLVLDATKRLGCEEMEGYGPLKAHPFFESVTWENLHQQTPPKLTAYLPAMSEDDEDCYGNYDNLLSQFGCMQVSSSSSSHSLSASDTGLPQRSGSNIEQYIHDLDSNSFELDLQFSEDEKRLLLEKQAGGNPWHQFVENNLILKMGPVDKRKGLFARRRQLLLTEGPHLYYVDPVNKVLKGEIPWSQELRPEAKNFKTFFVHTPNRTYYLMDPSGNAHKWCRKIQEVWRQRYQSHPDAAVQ
- PROCEDURE SUMMARY: PDK-1 kinase activity assay (PDK-tide phosphorylation, phosphocellulose filter plates)
- APPLIED CONDITIONS: at Km for ATP and PDKtide saturation; read-out: inhibits PDK-1, EC50
pEC50: −log10 of the molar value.
EXPERIMENTAL ENDPOINT: pEC50

* Cn1cc(C2=C(c3cn(C4CCNCC4)c4ccccc34)C(=O)NC2=O)c2ccccc21 | 6.43
